target: Carbonic anhydrase 2 (Homo sapiens)
Note to self: Ki under 4 nM means label 1, ties and anything higher get label 0.

{"Compound": "NS(=O)(=O)c1cc2c(s1)S(=O)(=O)CCN2", "Category": "label 1"}
{"Compound": "NS(=O)(=O)c1cc2c(s1)SC(CC(=O)O)C(=O)N2 (stereo not drawn)", "Category": "label 0"}
{"Compound": "COCCOCCN(CCOC)C(=O)CC1C(=O)Nc2cc(S(N)(=O)=O)sc2S1(=O)=O (stereo not drawn)", "Category": "label 1"}
{"Compound": "NS(=O)(=O)c1cc2c(s1)SCC(=O)N2", "Category": "label 0"}
{"Compound": "NS(=O)(=O)c1cc2c(s1)S(=O)(=O)CC(=O)N2", "Category": "label 1"}
{"Compound": "COCCOCCN(CCOC)CCC1C(=O)Nc2cc(S(N)(=O)=O)sc2S1(=O)=O (stereo not drawn)", "Category": "label 0"}
{"Compound": "NS(=O)(=O)c1cc2c(s1)S(=O)(=O)C(CCO)CN2 (stereo not drawn)", "Category": "label 1"}
